Collected IC50 values appear next to each entry.
testedTarget: soluble human BACE (Homo sapiens, UniProt P56817)
Construct: cells secreting human recombinant soluble BACE; made in house; conditioned medium
Sequence (P56817 46-457 limits assumed): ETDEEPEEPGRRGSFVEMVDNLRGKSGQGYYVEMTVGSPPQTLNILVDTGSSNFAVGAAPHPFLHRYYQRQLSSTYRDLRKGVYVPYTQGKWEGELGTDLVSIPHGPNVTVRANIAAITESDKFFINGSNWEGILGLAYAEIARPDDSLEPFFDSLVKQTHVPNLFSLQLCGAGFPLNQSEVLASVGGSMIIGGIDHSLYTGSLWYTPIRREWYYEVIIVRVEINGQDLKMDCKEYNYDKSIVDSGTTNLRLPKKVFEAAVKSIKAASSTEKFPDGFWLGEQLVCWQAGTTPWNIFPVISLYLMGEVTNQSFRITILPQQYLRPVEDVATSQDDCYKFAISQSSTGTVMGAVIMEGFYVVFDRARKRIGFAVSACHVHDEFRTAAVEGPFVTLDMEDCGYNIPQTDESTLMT
testProtocol: BACE activity Cell Free Assay (ELISA of cleaved synthetic APP substrate)
Type: biochemical

molecule=COc1cc(F)cc(N2C(=O)C=C[C@]23CCN(Cc2cccc(OC(C)C)c2)[C@@H](C)C3)c1 testedtarget="soluble human BACE (Homo sapiens, UniProt P56817)" observedmeasurement="1 to 10 µM"
molecule="CC1CC2(CCC(=O)N2c2cccc(F)c2)CCN1Cc1c[nH]c2ccc(C#N)cc12 (racemic)" testedtarget="soluble human BACE (Homo sapiens, UniProt P56817)" observedmeasurement="100 to 300 µM"
molecule=CCCn1nccc1CN1CC[C@]2(C=CC(=O)N2c2cccc(C)n2)C[C@@H]1C testedtarget="soluble human BACE (Homo sapiens, UniProt P56817)" observedmeasurement="10 to 100 µM"
molecule="COC(=O)Nc1ccc(CN2CCC3(CCC(=O)N3c3cccc(F)c3)CC2C)cc1 (racemic)" testedtarget="soluble human BACE (Homo sapiens, UniProt P56817)" observedmeasurement="100 to 300 µM"
molecule=Cc1cccc(N2C(=O)C=C[C@]23CCN(Cc2ccc(O)c(OC(C)C)c2)[C@@H](C)C3)n1 testedtarget="soluble human BACE (Homo sapiens, UniProt P56817)" observedmeasurement="0.001 to 1 µM"

Prompt: Give the value of IC50 reported for the following: C[C@H]1C[C@@]2(C=CC(=O)N2c2cnccn2)CCN1Cc1ccnn1CC(F)(F)F
Response: 100 to 300 µM

Prompt: Give the value of IC50 reported for the following: COc1cccc(-c2csc(CN3CCC4(C=CC(=O)N4c4cccc(F)c4)CC3C)n2)c1 (racemic)
Response: 10 to 100 µM

Prompt: Give the value of IC50 reported for the following: CC1CC2(CCC(=O)N2c2cccc(F)c2)CCN1Cc1n[nH]c2ccc(Cl)cc12 (racemic)
Response: 100 to 300 µM
